Assayed System: X-box-binding protein 1 (Homo sapiens)
Protocol Summary: ATG_Xbp1_CIS: Attagene CIS-FACTORIAL HepG2 Assay for human X-box Binding Protein 1 (XBP1) (AID 2282972)
Applied Conditions: HepG2 XBP1 cis-element reporter, Attagene multiplex; actives raise or lower the signal
The source made the active and inactive calls. Rule for the calls: active = hit-call score of the fitted dose curve at least 0.9, where 1 is the maximum; inactive = score below 0.9.
Select the correct class. Options are active, inactive and nothing else.

The following compounds have reported results that may help.
[
  {
    "Compound": "OCCN(CCO)CCO",
    "Assigned Class": "inactive"
  },
  {
    "Compound": "CCCCCCCCCCCCN(C)C",
    "Assigned Class": "active"
  }
]

Given `CC(C)(C#N)N=NC(C)(C)C#N` , state the outcome it received in this test. inactive

Outcome? `O=[N+]([O-])c1ccc(Nc2ccccc2)cc1` inactive

Hi team, can someone confirm the assay call for CC(O)(CS(=O)(=O)c1ccc(F)cc1)C(=O)Nc1ccc(C#N)c(C(F)(F)F)c1 (stereo not drawn) ? inactive

State the result this test recorded for `C1CN2CCN1CC2` . inactive

Please share the test call associated with `Cc1ccccc1OP(=O)(Oc1ccccc1C)Oc1ccccc1C` . active

For `O=S1(=O)OC(c2cc(Br)c(O)c(Br)c2)(c2cc(Br)c(O)c(Br)c2)c2ccccc21` , which call appears in the assay record? inactive

Which outcome was assigned to `C=CCc1ccccc1O` in this test? inactive

###

Assayed System: Paired box protein Pax-6 (Homo sapiens) (UniProt P26367)
Sequence (P26367 whole entry, looked up): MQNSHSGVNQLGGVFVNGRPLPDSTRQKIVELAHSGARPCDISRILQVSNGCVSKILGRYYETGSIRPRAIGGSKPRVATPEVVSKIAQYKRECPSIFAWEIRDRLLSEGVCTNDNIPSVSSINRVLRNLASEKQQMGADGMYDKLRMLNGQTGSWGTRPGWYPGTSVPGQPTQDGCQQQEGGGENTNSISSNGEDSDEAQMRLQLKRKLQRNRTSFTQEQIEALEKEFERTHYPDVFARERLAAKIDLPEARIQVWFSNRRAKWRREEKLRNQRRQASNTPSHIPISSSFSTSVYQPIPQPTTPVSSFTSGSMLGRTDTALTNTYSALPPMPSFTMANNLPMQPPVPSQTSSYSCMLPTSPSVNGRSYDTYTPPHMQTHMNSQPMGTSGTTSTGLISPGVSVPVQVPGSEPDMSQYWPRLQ
Protocol Summary: ATG_Pax6_CIS: Attagene CIS-FACTORIAL HepG2 Assay for human Paired Box 6 (PAX6) (AID 2282956)
Applied Conditions: HepG2 CIS-FACTORIAL PAX6 reporter transcription, RNA readout; actives raise or lower the signal
Calls of active or inactive are those of the source. Rule for the calls: active = hit-call score of the fitted dose curve at least 0.9, where 1 is the maximum; inactive = score below 0.9.
Hi! Could you answer with just one of these? TRUE (active), FALSE (inactive)

Please review the entries below; each comes with its answer.
[
  {
    "Compound": "O=C(O)COc1cc(Cl)c(Cl)cc1Cl",
    "Assigned Class": "FALSE"
  },
  {
    "Compound": "ClCCN1CCOCC1",
    "Assigned Class": "FALSE"
  },
  {
    "Compound": "Cc1cc(Cl)ccc1N",
    "Assigned Class": "FALSE"
  },
  {
    "Compound": "Cc1cc(C(C)(C)c2ccc(O)c(C)c2)ccc1O",
    "Assigned Class": "TRUE"
  },
  {
    "Compound": "CC(=O)CN(CC(C)=O)N=O",
    "Assigned Class": "FALSE"
  },
  {
    "Compound": "Cc1cccc(OP(=O)(Oc2cccc(C)c2)Oc2cccc(C)c2)c1",
    "Assigned Class": "FALSE"
  }
]

Assay result, entry `O=C(CBr)c1ccc(O)cc1` — outcome? FALSE

Answer briefly: the call reported for `O=CCCl` in this assay. TRUE

Any idea what this test logged for `CN(N=O)C(N)=O` ? FALSE

###

Protocol Summary: ATG_RORE_CIS: Attagene CIS-FACTORIAL HepG2 Assay for human RAR-related Orphan Receptor Element (RORE) (AID 2282959)
Applied Conditions: HepG2 Attagene cis-factorial RORE reporter, mRNA; actives raise or lower the signal
Active and inactive are the calls of the source. Rule for the calls: active = hit-call score of the fitted dose curve at least 0.9, where 1 is the maximum; inactive = score below 0.9.
Reported Endpoint: outcome

Here is how some compounds turned out for outcome.
[
  {
    "Compound": "CC1CC(=O)O1 (configuration not stated)",
    "outcome": "inactive"
  },
  {
    "Compound": "C[C@]12CC[C@@H](O)C[C@@H]1CC[C@@H]1[C@@H]2CC[C@]2(C)C(=O)CC[C@@H]12",
    "outcome": "inactive"
  },
  {
    "Compound": "O=C1C[C@@H]2OCC=C3CN4CC[C@]56c7ccccc7N1[C@H]5[C@H]2[C@H]3C[C@H]46",
    "outcome": "inactive"
  },
  {
    "Compound": "CC(=O)C(F)(F)C(F)(F)F",
    "outcome": "inactive"
  },
  {
    "Compound": "CCN(CCO)CCO",
    "outcome": "inactive"
  }
]

// outcome lookup, key: `CCOP(=S)(OCC)SCSc1cc(Cl)ccc1Cl` inactive

Requested read-out: outcome. Entry: CN(CCCC(O)c1cccnc1)N=O (configuration not stated) inactive

###

Assayed System: Cellular tumor antigen p53 (Homo sapiens) (UniProt P04637)
Sequence (P04637 whole entry, looked up): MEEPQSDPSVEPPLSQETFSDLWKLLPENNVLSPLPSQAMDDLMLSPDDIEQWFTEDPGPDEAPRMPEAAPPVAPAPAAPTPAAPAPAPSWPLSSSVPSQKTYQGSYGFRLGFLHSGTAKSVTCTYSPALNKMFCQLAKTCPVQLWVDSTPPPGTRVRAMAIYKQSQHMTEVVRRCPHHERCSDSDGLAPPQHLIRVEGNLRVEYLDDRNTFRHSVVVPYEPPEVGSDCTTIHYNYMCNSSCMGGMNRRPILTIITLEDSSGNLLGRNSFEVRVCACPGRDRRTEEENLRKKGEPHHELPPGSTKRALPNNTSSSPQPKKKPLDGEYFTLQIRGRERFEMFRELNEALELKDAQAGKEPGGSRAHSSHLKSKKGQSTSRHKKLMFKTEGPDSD
Protocol Summary: TOX21_p53_BLA_p2_ratio: Tox21 HCT-116 p53 Agonism Beta-lactamase Assay, Ratio, Phase 2 (AID 2283592)
Records with an inconclusive call do not appear. Active and inactive are the calls of the source. How the source made its calls: active means hit-call score of the fitted dose curve at least 0.9, where 1 is the maximum; inconclusive means response in the unintended direction; inactive means score below 0.9.
Select the matching outcome among T for active, F for inactive

Example results:
[
  {
    "Compound": "CCN(CC)C(=O)C(Cl)=C(C)OP(=O)(OC)OC",
    "Assayed System": "Cellular tumor antigen p53 (Homo sapiens) (UniProt P04637)",
    "Assigned Class": "F"
  },
  {
    "Compound": "O=C(CCl)Nc1ccccc1",
    "Assayed System": "Cellular tumor antigen p53 (Homo sapiens) (UniProt P04637)",
    "Assigned Class": "F"
  },
  {
    "Compound": "BrCCCCBr",
    "Assayed System": "Cellular tumor antigen p53 (Homo sapiens) (UniProt P04637)",
    "Assigned Class": "F"
  },
  {
    "Compound": "C=C(C)[C@@H]1CC=C(C=O)CC1",
    "Assayed System": "Cellular tumor antigen p53 (Homo sapiens) (UniProt P04637)",
    "Assigned Class": "F"
  },
  {
    "Compound": "COP(=S)(OC)Oc1cc(Cl)c(I)cc1Cl",
    "Assayed System": "Cellular tumor antigen p53 (Homo sapiens) (UniProt P04637)",
    "Assigned Class": "T"
  },
  {
    "Compound": "O=C(NC(=O)c1c(F)cccc1F)Nc1cc(Cl)c(F)c(Cl)c1F",
    "Assayed System": "Cellular tumor antigen p53 (Homo sapiens) (UniProt P04637)",
    "Assigned Class": "F"
  },
  {
    "Compound": "CCCCCCCCCCCCBr",
    "Assayed System": "Cellular tumor antigen p53 (Homo sapiens) (UniProt P04637)",
    "Assigned Class": "F"
  },
  {
    "Compound": "N#CS",
    "Assayed System": "Cellular tumor antigen p53 (Homo sapiens) (UniProt P04637)",
    "Assigned Class": "F"
  }
]

Hi, do you know how `OC[P+](CO)(CO)CO` came out in this test? F

Please let me know the test result on file for N#CCCC(Br)(C#N)CBr (centres undefined) . F

Assay result, entry `Cc1cc(C(C)(C)c2ccc(O)c(C)c2)ccc1O` — outcome? T

// return assay outcome for CCCCC(CC)C(=O)Cl (centres undefined) F

Please state the recorded outcome for this compound: CCOC(=O)C(SP(=S)(OC)OC)c1ccccc1 (centres undefined) F

Any idea what this test logged for `Cc1cc(Cl)ccc1OCCCC(=O)O` ? F

Could you check what this test reported for `CC(C)(C#N)N=NC(C)(C)C#N` ? F

Kindly provide the recorded test outcome for the following compound: `Cc1ccccc1OP(=O)(Oc1ccccc1C)Oc1ccccc1C` F

###

Protocol Summary: BSK_LPS_PGE2: BioMAP Diversity Plus: LPS Assay for Prostaglandin E2 (PGE2) Biomarker Activity (AID 2283082)
Applied Conditions: primary human HUVEC with PBMC; actives raise or lower the signal
The source made the active and inactive calls. The calls were made as follows: active = hit-call score of the fitted dose curve at least 0.9, where 1 is the maximum; inactive = score below 0.9.
Reported Endpoint: AC50

The cases that follow already have their AC50 on record.
[
  {
    "Chemical Structure": "O=C(O)COc1cc(Cl)c(Cl)cc1Cl",
    "Measured Value": "inactive"
  },
  {
    "Chemical Structure": "Nc1c(Oc2ccccc2)cc(O)c2c1C(=O)c1ccccc1C2=O",
    "Measured Value": "inactive"
  },
  {
    "Chemical Structure": "CCCCCCCCCCCCc1cccc(S(=O)(=O)O)c1",
    "Measured Value": "inactive"
  },
  {
    "Chemical Structure": "CN(C)C(=S)S",
    "Measured Value": "inactive"
  },
  {
    "Chemical Structure": "O=C1C=CC(=O)c2ccccc21",
    "Measured Value": "inactive"
  }
]

Report AC50 for `Cc1ccccc1OP(=O)(Oc1ccccc1C)Oc1ccccc1C` please. inactive

So what does the record say about AC50 for `O=C(O)C1(c2ccc3c(c2)OC[C@H](Cc2ccc(-c4ccccc4)cc2)[C@H]3O)CCCC1` ? inactive

Entry `Cc1c([N+](=O)[O-])c(C)c([N+](=O)[O-])c(C(C)(C)C)c1[N+](=O)[O-]` has what AC50? inactive

###

Read-out: TIMP metallopeptidase inhibitor 2 (TIMP2), TIMP2 (gene 7077)
Protocol Summary: BSK_KF3CT_TIMP2: BioMAP Diversity Plus: KF3CT Assay for TIMP metallopeptidase inhibitor 2 (TIMP2) Biomarker Activity (AID 2283071)
Applied Conditions: primary human keratinocytes with fibroblasts; actives raise or lower the signal
Activity calls are given as the source filed them. How the source made its calls: active means hit-call score of the fitted dose curve at least 0.9, where 1 is the maximum; inactive means score below 0.9.
Would you mind answering with one of these outcomes? active, inactive

Field: outcome | Entry: `Oc1c(Cl)cc(Cl)cc1Cl` inactive

Could you please tell me the result logged for `Cc1ccccc1OP(=O)(Oc1ccccc1C)Oc1ccccc1C` in this assay? active

Outcome logged for OC(Cc1ccccc1Cl)(Cn1[nH]cnc1=S)C1(Cl)CC1 (centres undefined) in this assay: active
